test system: RPMI-8226 leukemia; test: NCI-60 one-dose screen, 48 h (100 = growth as untreated, 0 = no growth, -100 = all killed); conditions: 10 µM
Compounds without any hit were thinned out: in the full panel of roughly 83,000, 20% have a hit.
Catalogue of molecules with associated growth
measurement.type: growth (%)

>>> print(df.to_string())
                                   molecule  measurement_type  result_number
0       COCCCC/C(=N\OCCN)c1ccc(C(F)(F)F)cc1            growth            100
1  CC1(C)/C(=C\CO)C2CCC1C2 (stereo unspecified)            growth           91.6
2  CC(C)NC(=O)OCc1c(COC(=O)NC(C)C)c(-c2ccc(Cl)c(Cl)c2)n2c1SCC2            growth             36
3  CC1=CC(C)(C)NC(=S)N1c1ccc(S(=O)(=O)O)c2cccc(S(=O)(=O)O)c12            growth            113
4     Clc1ccc(-c2n[nH]c3c2Cc2ccccc2-3)cc1Cl            growth           57.9
5       O=[N+]([O-])c1ccc(O)c(S(=O)(=O)O)c1            growth            105
